Hey, just so you know, these numbers are from ChEMBL document CHEMBL4145462.

Target: ABCB1 (P-glycoprotein) (Homo sapiens, UniProt P08183)
Sequence (P08183 whole entry): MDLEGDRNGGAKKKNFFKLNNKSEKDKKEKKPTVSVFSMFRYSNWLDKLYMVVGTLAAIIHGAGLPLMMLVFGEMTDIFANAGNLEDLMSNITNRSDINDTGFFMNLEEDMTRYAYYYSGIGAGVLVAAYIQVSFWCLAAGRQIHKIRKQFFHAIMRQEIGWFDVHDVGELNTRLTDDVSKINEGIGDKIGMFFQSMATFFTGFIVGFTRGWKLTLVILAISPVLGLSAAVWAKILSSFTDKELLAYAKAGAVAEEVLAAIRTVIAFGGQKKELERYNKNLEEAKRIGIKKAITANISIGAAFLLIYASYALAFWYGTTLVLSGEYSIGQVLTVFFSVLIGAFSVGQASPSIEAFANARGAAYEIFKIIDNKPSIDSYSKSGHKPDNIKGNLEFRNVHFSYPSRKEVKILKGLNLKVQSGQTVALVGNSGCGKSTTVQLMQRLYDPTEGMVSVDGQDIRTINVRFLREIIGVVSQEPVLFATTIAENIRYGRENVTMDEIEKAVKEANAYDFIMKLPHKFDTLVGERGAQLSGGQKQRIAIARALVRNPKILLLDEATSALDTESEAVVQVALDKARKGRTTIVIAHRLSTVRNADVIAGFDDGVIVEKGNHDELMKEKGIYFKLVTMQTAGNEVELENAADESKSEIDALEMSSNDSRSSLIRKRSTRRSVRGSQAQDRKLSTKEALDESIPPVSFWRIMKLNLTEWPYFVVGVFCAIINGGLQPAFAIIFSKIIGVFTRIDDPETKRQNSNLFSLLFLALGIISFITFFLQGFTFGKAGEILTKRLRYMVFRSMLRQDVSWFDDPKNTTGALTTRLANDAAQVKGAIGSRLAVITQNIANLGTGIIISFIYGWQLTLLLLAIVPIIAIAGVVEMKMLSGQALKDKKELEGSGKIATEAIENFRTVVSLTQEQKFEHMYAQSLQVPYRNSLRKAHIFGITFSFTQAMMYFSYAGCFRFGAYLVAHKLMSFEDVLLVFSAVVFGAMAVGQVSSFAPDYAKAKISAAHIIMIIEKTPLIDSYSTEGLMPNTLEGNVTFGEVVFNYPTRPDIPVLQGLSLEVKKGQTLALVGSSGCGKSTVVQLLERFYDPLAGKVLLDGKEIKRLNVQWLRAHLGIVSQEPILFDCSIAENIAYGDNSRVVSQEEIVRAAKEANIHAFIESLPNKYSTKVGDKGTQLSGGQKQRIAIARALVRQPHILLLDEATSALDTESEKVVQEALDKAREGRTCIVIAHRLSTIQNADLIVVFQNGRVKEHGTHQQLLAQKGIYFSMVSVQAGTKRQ
Assay: Inhibition of human ABCB1 expressed in mouse L5178 cells assessed as increase in rhodamine-123 accumulation at 20 uM after 10 mins by flow cytometric analysis relative to control
Type: cell-based
Conditions: mouse L5178 cells expressing human ABCB1, probe rhodamine-123
Label Yes when inhibition at 10 min, 20 µM >= 90%; otherwise No.

{"columns": ["compound-string", "experimental-target", "label-class"],
 "data": [
  ["CC(C)(O)CC[C@H]1OC(C)(C)O[C@]1(C)[C@H]1CC[C@@]2(O)C3=C/C(=N\\OC(C)(C)C)[C@@H]4C[C@H]5OC(C)(C)O[C@H]5C[C@]4(C)[C@H]3CC[C@]12C", "ABCB1 (P-glycoprotein) (Homo sapiens, UniProt P08183)", "Yes"],
  ["C=CCO/N=C1/C=C2[C@H](CC[C@]3(C)[C@@H]([C@@]4(C)OC(C)(C)O[C@@H]4CCC(C)(C)O)CC[C@@]23O)[C@@]2(C)C[C@@H]3OC(C)(C)O[C@@H]3C[C@@H]12", "ABCB1 (P-glycoprotein) (Homo sapiens, UniProt P08183)", "No"],
  ["CC(C)(O)CC[C@H]1OC(C)(C)O[C@]1(C)[C@H]1CC=C2C3=C/C(=N/O)[C@@H]4C[C@H]5OC(C)(C)O[C@H]5C[C@]4(C)[C@H]3CC[C@@]21C", "ABCB1 (P-glycoprotein) (Homo sapiens, UniProt P08183)", "No"],
  ["CC(C)(O)CC[C@H]1OC(C)(C)O[C@]1(C)[C@H]1CC=C2C3=C/C(=N/OC(C)(C)C)[C@@H]4C[C@H]5OC(C)(C)O[C@H]5C[C@]4(C)[C@H]3CC[C@@]21C", "ABCB1 (P-glycoprotein) (Homo sapiens, UniProt P08183)", "No"],
  ["CC(C)(O)CC[C@H]1OC(C)(C)O[C@]1(C)[C@H]1CC[C@@]2(O)C3=CC(=O)[C@@H]4C[C@H]5OC(C)(C)O[C@H]5C[C@]4(C)[C@H]3CC[C@]12C", "ABCB1 (P-glycoprotein) (Homo sapiens, UniProt P08183)", "No"],
  ["C=CCO/N=C1/C=C2C3=CC[C@H]([C@@]4(C)OC(C)(C)O[C@@H]4CCC(C)(C)O)[C@@]3(C)CC[C@@H]2[C@@]2(C)C[C@@H]3OC(C)(C)O[C@@H]3C[C@@H]12", "ABCB1 (P-glycoprotein) (Homo sapiens, UniProt P08183)", "Yes"],
  ["CC(C)(O)CC[C@H]1OC(C)(C)O[C@]1(C)[C@H]1CC=C2C3=CC(=O)N[C@@H]4C[C@H]5OC(C)(C)O[C@H]5C[C@]4(C)[C@H]3CC[C@@]21C", "ABCB1 (P-glycoprotein) (Homo sapiens, UniProt P08183)", "No"],
  ["CC(C)(O)CC[C@H]1OC(C)(C)O[C@]1(C)[C@H]1CC=C2C3=C/C(=N\\O)[C@@H]4C[C@H]5OC(C)(C)O[C@H]5C[C@]4(C)[C@H]3CC[C@@]21C", "ABCB1 (P-glycoprotein) (Homo sapiens, UniProt P08183)", "No"],
  ["CO/N=C1/C=C2C3=CC[C@H]([C@@]4(C)OC(C)(C)O[C@@H]4CCC(C)(C)O)[C@@]3(C)CC[C@@H]2[C@@]2(C)C[C@@H]3OC(C)(C)O[C@@H]3C[C@@H]12", "ABCB1 (P-glycoprotein) (Homo sapiens, UniProt P08183)", "Yes"],
  ["CC(C)(O)CC[C@H]1OC(C)(C)O[C@]1(C)[C@H]1CC=C2C3=C/C(=N\\OC(C)(C)C)[C@@H]4C[C@H]5OC(C)(C)O[C@H]5C[C@]4(C)[C@H]3CC[C@@]21C", "ABCB1 (P-glycoprotein) (Homo sapiens, UniProt P08183)", "Yes"],
  ["CCO/N=C1\\C=C2[C@H](CC[C@]3(C)[C@@H]([C@@]4(C)OC(C)(C)O[C@@H]4CCC(C)(C)O)CC[C@@]23O)[C@@]2(C)C[C@@H]3OC(C)(C)O[C@@H]3C[C@@H]12", "ABCB1 (P-glycoprotein) (Homo sapiens, UniProt P08183)", "No"],
  ["CCO/N=C1/C=C2C3=CC[C@H]([C@@]4(C)OC(C)(C)O[C@@H]4CCC(C)(C)O)[C@@]3(C)CC[C@@H]2[C@@]2(C)C[C@@H]3OC(C)(C)O[C@@H]3C[C@@H]12", "ABCB1 (P-glycoprotein) (Homo sapiens, UniProt P08183)", "Yes"],
  ["CO/N=C1\\C=C2[C@H](CC[C@]3(C)[C@@H]([C@@]4(C)OC(C)(C)O[C@@H]4CCC(C)(C)O)CC[C@@]23O)[C@@]2(C)C[C@@H]3OC(C)(C)O[C@@H]3C[C@@H]12", "ABCB1 (P-glycoprotein) (Homo sapiens, UniProt P08183)", "No"],
  ["CCO/N=C1/C=C2[C@H](CC[C@]3(C)[C@@H]([C@@]4(C)OC(C)(C)O[C@@H]4CCC(C)(C)O)CC[C@@]23O)[C@@]2(C)C[C@@H]3OC(C)(C)O[C@@H]3C[C@@H]12", "ABCB1 (P-glycoprotein) (Homo sapiens, UniProt P08183)", "No"]
]}

* * *

# key: entry, value: CI
Test: Synergistic cytotoxicity against mouse L5178 cells expressing human ABCB1 assessed as combination index at ED75 using 60:1 test compound to doxorubicin ratio after 48 hrs by MTT-based checkerboard microplate method
Type: functional

{"columns": ["compound-string", "CI"],
 "data": [
  ["CC(C)(O)CC[C@H]1OC(C)(C)O[C@]1(C)[C@H]1CC[C@@]2(O)C3=C/C(=N\\OC(C)(C)C)[C@@H]4C[C@H]5OC(C)(C)O[C@H]5C[C@]4(C)[C@H]3CC[C@]12C", 0.44],
  ["C=CCO/N=C1/C=C2C3=CC[C@H]([C@@]4(C)OC(C)(C)O[C@@H]4CCC(C)(C)O)[C@@]3(C)CC[C@@H]2[C@@]2(C)C[C@@H]3OC(C)(C)O[C@@H]3C[C@@H]12", 0.39],
  ["CO/N=C1/C=C2C3=CC[C@H]([C@@]4(C)OC(C)(C)O[C@@H]4CCC(C)(C)O)[C@@]3(C)CC[C@@H]2[C@@]2(C)C[C@@H]3OC(C)(C)O[C@@H]3C[C@@H]12", 0.34],
  ["C=CCO/N=C1/C=C2[C@H](CC[C@]3(C)[C@@H]([C@@]4(C)OC(C)(C)O[C@@H]4CCC(C)(C)O)CC[C@@]23O)[C@@]2(C)C[C@@H]3OC(C)(C)O[C@@H]3C[C@@H]12", 0.32],
  ["CC(C)(O)CC[C@H]1OC(C)(C)O[C@]1(C)[C@H]1CC=C2C3=C/C(=N/OC(C)(C)C)[C@@H]4C[C@H]5OC(C)(C)O[C@H]5C[C@]4(C)[C@H]3CC[C@@]21C", 0.5],
  ["CCO/N=C1\\C=C2[C@H](CC[C@]3(C)[C@@H]([C@@]4(C)OC(C)(C)O[C@@H]4CCC(C)(C)O)CC[C@@]23O)[C@@]2(C)C[C@@H]3OC(C)(C)O[C@@H]3C[C@@H]12", 0.35],
  ["CC(C)(O)CC[C@H]1OC(C)(C)O[C@]1(C)[C@H]1CC=C2C3=C/C(=N\\OC(C)(C)C)[C@@H]4C[C@H]5OC(C)(C)O[C@H]5C[C@]4(C)[C@H]3CC[C@@]21C", 0.57],
  ["C=CCO/N=C1\\C=C2[C@H](CC[C@]3(C)[C@@H]([C@@]4(C)OC(C)(C)O[C@@H]4CCC(C)(C)O)CC[C@@]23O)[C@@]2(C)C[C@@H]3OC(C)(C)O[C@@H]3C[C@@H]12", 0.26],
  ["CC(C)(O)CC[C@H]1OC(C)(C)O[C@]1(C)[C@H]1CC=C2C3=CC(=O)N[C@@H]4C[C@H]5OC(C)(C)O[C@H]5C[C@]4(C)[C@H]3CC[C@@]21C", 0.17],
  ["CC(C)(O)CC[C@H]1OC(C)(C)O[C@]1(C)[C@H]1CC=C2C3=C/C(=N/O)[C@@H]4C[C@H]5OC(C)(C)O[C@H]5C[C@]4(C)[C@H]3CC[C@@]21C", 0.34],
  ["CC(C)(O)CC[C@H]1OC(C)(C)O[C@]1(C)[C@H]1CC=C2C3=C/C(=N\\O)[C@@H]4C[C@H]5OC(C)(C)O[C@H]5C[C@]4(C)[C@H]3CC[C@@]21C", 0.29],
  ["CCO/N=C1/C=C2C3=CC[C@H]([C@@]4(C)OC(C)(C)O[C@@H]4CCC(C)(C)O)[C@@]3(C)CC[C@@H]2[C@@]2(C)C[C@@H]3OC(C)(C)O[C@@H]3C[C@@H]12", 0.36],
  ["CO/N=C1\\C=C2[C@H](CC[C@]3(C)[C@@H]([C@@]4(C)OC(C)(C)O[C@@H]4CCC(C)(C)O)CC[C@@]23O)[C@@]2(C)C[C@@H]3OC(C)(C)O[C@@H]3C[C@@H]12", 0.39]
]}
